experiment: Toxicity liver stage against HepG2, at 10uM; assay type: cell-based; parameters: test concentration 10 uM, cell line HepG2-A16-CD81EGFP; conditions: human, HepG2-A16-CD81EGFP cells; read-out: INHIBITION
Kindly supply the reported cytotoxicity at 10 µM values for the records listed here.
Answers are plain numbers, in %.

Take a look at these entries with their results.
{"COMPOUND": "CC(=O)c1ccc(NC(=O)NCc2cccc(N(C)C)n2)cc1C", "SCALE_UNIT": "%", "OBSERVED_RESULT": 6.45}
{"COMPOUND": "c1ccc(CN2CC[C@]3(C[C@@H](Oc4ccccn4)CO3)C2)nc1", "SCALE_UNIT": "%", "OBSERVED_RESULT": -1.88}
{"COMPOUND": "c1ccc(C[C@H]2CN(C3CCOCC3)CC[C@H]2OCC2CC2)cc1", "SCALE_UNIT": "%", "OBSERVED_RESULT": 0.994}
{"COMPOUND": "Cc1ncsc1CCN(C)C(=O)c1ccc(CN2CCCCC2)cc1", "SCALE_UNIT": "%", "OBSERVED_RESULT": -4.38}
{"COMPOUND": "O=C(c1cccnc1)N1CCN(c2ccc(-n3cccc3)nn2)CC1", "SCALE_UNIT": "%", "OBSERVED_RESULT": -9.73}
{"COMPOUND": "COc1cccc2ccc(CN3CCN(c4ccncc4)CC3)nc12", "SCALE_UNIT": "%", "OBSERVED_RESULT": -1.36}
{"COMPOUND": "COCC(=O)N1CCN(S(=O)(=O)c2ccccc2)[C@H]2CS(=O)(=O)C[C@H]21", "SCALE_UNIT": "%", "OBSERVED_RESULT": 4.84}
{"COMPOUND": "O=C(Nc1cccnc1)[C@H]1CN(Cc2cccs2)C[C@H]2OCC[C@@H]12", "SCALE_UNIT": "%", "OBSERVED_RESULT": -109}

Give measured cytotoxicity at 10 µM for every item shown.
1. CCOCCCC(=O)NCC(c1ccccc1)N1CCc2sccc2C1 (stereo not drawn)
2. CC(=O)N1CCc2nnc(C3CCCCN3CC3CCCCC3)n2CC1 (stereo not drawn)
3. Cc1cccc(CN2CCc3ncnc(N4CCN(C)CC4)c3CC2)n1
4. O=C(c1cccc(Cl)c1)N1CCCC(Nc2ccc(F)cc2)C1 (stereo not drawn)

Response:
1: 2.69; 2: 10.2; 3: -145; 4: -7.05

====

Record form. Attribute: cytotoxicity at 10 µM. Fill in for each entry.
assay: Toxicity liver stage against HepG2, at 10uM; format: cell-based; design: test concentration 10 uM, cell line HepG2-A16-CD81EGFP; details: human, HepG2-A16-CD81EGFP cells; read-out: INHIBITION
Numbers only, in %.

Use these answered entries as a reference point.
{"COMPOUND": "CCn1cc(CN2CCCN(C(=O)C3(C)CCOCC3)CC2)cn1", "VALUE_KIND": "cytotoxicity at 10 µM", "OBSERVED_RESULT": -45.4}
{"COMPOUND": "CCOCn1cc(NC(=O)C2CCN(S(C)(=O)=O)CC2)cn1", "VALUE_KIND": "cytotoxicity at 10 µM", "OBSERVED_RESULT": -10.7}
{"COMPOUND": "CC(c1cccs1)N(C)Cc1cnc(-c2ccccn2)nc1 (centres undefined)", "VALUE_KIND": "cytotoxicity at 10 µM", "OBSERVED_RESULT": -6.3}

Give one value of cytotoxicity at 10 µM per listed compound.
1. Cc1nc(CO[C@@H]2CN(Cc3ccsc3)[C@@H]3COC[C@@H]32)cs1
2. COc1cc(CNc2nc(C(F)(F)F)no2)cc(OC)c1OC
3. COCCC(=O)N1CCC(Nc2ncc(Br)cn2)CC1
4. Cc1cc(C)c2cc(CNCCCN3CCOCC3)c(=O)[nH]c2c1

Response:
3.04
1.66
-2.46
-23.8

// each compound listed below needs its cytotoxicity at 10 µM
1. O=C1NC2(CCN(C(=O)N3CCOCC3)CC2)CC1c1cccnc1 (centres undefined)
2. Cc1ccc(C)c(-c2csc(N)c2C#N)c1
3. CC(=O)c1cn(CCC(=O)NCCC(=O)O)c2ccccc12
4. Fc1ccc(CN2CCCn3cnc(COCC4CC4)c3C2)cc1
5. CCN(CC)CC(=O)N1CCCCC1c1nc(C)cs1 (centres undefined)
6. CNC(=O)c1cccnc1N1CCC(OCc2ccccc2)CC1
7. CCCc1c(C2CCOC(C)(C)C2)nc(N)c(C#N)c1-c1cnn(C)c1 (centres undefined)

Response:
1. -128
2. 5.47
3. 7.13
4. 7.43
5. -5.78
6. 2.49
7. -3.22

# map each compound to its cytotoxicity at 10 µM
1. COc1ccc(-c2ccnc(C3CCNCC3)c2)cc1
2. COc1cccc(CCC(=O)N2CCCC(n3cc(C)cn3)C2)c1 (centres undefined)
3. CCc1nccn1CCC(=O)N1CCCC1c1ccc(F)cc1 (centres undefined)
4. NC(=O)CN1CCC(C(=O)NCCn2cc(Cl)cn2)CC1
5. CCN1CC(C(=O)NC(C)(C)CC(C)(C)C)CC1=O (centres undefined)
6. c1cnc(N2CCO[C@H]3CN(CC4CCCC4)C[C@H]32)cn1
7. Cc1ccc2cccc(S(=O)(=O)N(C)CC3CCN(C)C3)c2n1 (centres undefined)
8. Cc1nc(N2CCCC2)ncc1-c1cc(O)nc(N2CCCC2)n1

Response:
1. -41.4
2. 4.28
3. 1.58
4. -45.6
5. -4.72
6. -101
7. 1.5
8. 6.79

For every record below, what is its cytotoxicity at 10 µM?
1. O=C(NCC1CC1)C1CN(C(=O)c2cccnc2)CC12CCOCC2 (centres undefined)
2. CC(NC(=O)CNS(C)(=O)=O)c1ccccc1Oc1ccccc1 (centres undefined)

Response:
1: 3.25; 2: 4.69
